The reported measurements were obtained from patent US20250302815A1.

target: PTPN2 (HiBIT-PTPN2 in 293T.109 cells) (Homo sapiens, UniProt P17706); construct: expressed in transfected cells; host or cells: 293T.109 (293T WT from ATCC); assay: HiBiT Degradation 293T.109 PTPN2 (Nano-Glo HiBiT Lytic Assay); format: cell-based; settings: 24.0 hours
Sequence (P17706 whole entry, species assumed): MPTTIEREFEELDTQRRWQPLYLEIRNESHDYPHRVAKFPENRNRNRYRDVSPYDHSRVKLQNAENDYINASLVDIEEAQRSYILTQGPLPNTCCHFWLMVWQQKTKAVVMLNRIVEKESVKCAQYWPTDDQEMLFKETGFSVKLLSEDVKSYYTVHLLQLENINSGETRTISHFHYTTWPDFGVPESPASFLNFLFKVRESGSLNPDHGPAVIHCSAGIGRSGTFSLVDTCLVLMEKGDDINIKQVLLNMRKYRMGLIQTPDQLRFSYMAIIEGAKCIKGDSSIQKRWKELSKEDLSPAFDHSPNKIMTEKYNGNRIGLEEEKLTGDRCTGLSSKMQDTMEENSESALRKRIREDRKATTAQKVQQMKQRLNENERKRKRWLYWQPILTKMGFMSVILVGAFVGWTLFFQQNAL
Entries and their DC50
observation-type: DC50

CC1(C)C[C@@H](Nc2cccc(-c3sc(C(=O)O)c(OCC(=O)O)c3Cl)c2)CCN1S(=O)(=O)Cc1cccc(NC(=O)N2CCN(C(=O)CCc3cccc4c3CN(C3CCC(=O)NC3=O)C4=O)CC2)c1 (stereo partly shown)
200 to 1000 nM
CN(C(=O)C1CCN(C(=O)CNc2cccc3c2CN(C2CCC(=O)NC2=O)C3=O)CC1)c1cccc(CS(=O)(=O)N2CC[C@@H](Nc3cccc(-c4sc(C(=O)O)c(OCC(=O)O)c4Cl)c3)CC2(C)C)c1 (stereo partly shown)
200 to 1000 nM
O=C(O)COc1c(C(=O)O)sc(-c2cccc(NC3CCN(S(=O)(=O)Cc4cccc(NC(=O)CCCCCCNC(=O)CNc5cccc6c5C(=O)N(C5CCC(=O)NC5=O)C6)c4)CC3)c2)c1Cl (stereo not shown)
200 to 1000 nM
CC1(C)C[C@@H](Nc2cccc(-c3sc(C(=O)O)c(OCC(=O)O)c3Cl)c2)CCN1S(=O)(=O)Cc1cccc(NC(=O)CCOCCOCCOCCCc2cccc3c2C(=O)N(C2CCC(=O)NC2=O)C3=O)c1 (stereo partly shown)
200 to 1000 nM
Cn1c(=O)n(C2CCC(=O)NC2=O)c2ccc(C3CCN(C(=O)Nc4cccc(CS(=O)(=O)N5CC[C@@H](Nc6cccc(-c7sc(C(=O)O)c(OCC(=O)O)c7Cl)c6)CC56CC6)c4)CC3)cc21 (stereo partly shown)
200 to 1000 nM
CC(Nc1cccc2c1CN(C1CCC(=O)NC1=O)C2=O)C(=O)NCCCCCCC(=O)Nc1cccc(CS(=O)(=O)N2CCC(Nc3cccc(-c4sc(C(=O)O)c(OCC(=O)O)c4Cl)c3)CC2)c1 (stereo not shown)
200 to 1000 nM
Cn1c(=O)n(C2CCC(=O)NC2=O)c2ccc(C3CCN(CC(=O)Nc4cccc(CS(=O)(=O)N5CCC(Nc6cccc(-c7sc(C(=O)O)c(OCC(=O)O)c7Cl)c6)CC5)c4)CC3)cc21 (stereo not shown)
50 to 200 nM
O=C(O)COc1c(C(=O)O)sc(-c2cccc(NC3CCN(S(=O)(=O)Cc4cccc(NC(=O)C5CN(C(=O)CNc6cccc7c6CN(C6CCC(=O)NC6=O)C7=O)C5)c4F)CC3)c2)c1Cl (stereo not shown)
< 50 nM
O=C(O)COc1c(C(=O)O)sc(-c2cccc(NC3CCN(S(=O)(=O)Cc4cccc(NC(=O)N5CCC(Oc6cccc7c6CN(C6CCC(=O)NC6=O)C7=O)CC5)c4)CC3)c2)c1Cl (stereo not shown)
200 to 1000 nM
C[C@H]1CN(C(=O)Nc2cccc(CS(=O)(=O)N3CC[C@H](Nc4cccc(-c5sc(C(=O)O)c(OCC(=O)O)c5Cl)c4)CC3(C)C)c2)CCN1c1ccc2c(c1)n(C)c(=O)n2C1CCC(=O)NC1=O (stereo partly shown)
50 to 200 nM
Cn1c(=O)n(C2CCC(=O)NC2=O)c2ccc(N3CCC(NCCNc4cccc(CS(=O)(=O)N5CC[C@H](Nc6cccc(-c7sc(C(=O)O)c(OCC(=O)O)c7Cl)c6)CC5(C)C)c4)CC3)cc21 (stereo partly shown)
< 50 nM
CN(c1cccc(-c2sc(C(=O)O)c(OCC(=O)O)c2Cl)c1)C1CCN(S(=O)(=O)Cc2cccc(NC(=O)CCn3cc(CNc4cccc5c4C(=O)N(C4CCC(=O)NC4=O)C5=O)nn3)c2)CC1 (stereo not shown)
≥ 1000 nM
CC1(C)C[C@@H](Nc2cccc(-c3sc(C(=O)O)c(OCC(=O)O)c3Cl)c2)CCN1S(=O)(=O)Cc1cccc(NC(=O)C2C[C@@H]3CN(C(=O)CNc4cccc5c4CN(C4CCC(=O)NC4=O)C5=O)C[C@@H]3C2)c1 (stereo partly shown)
200 to 1000 nM
Cn1c(=O)n(C2CCC(=O)NC2=O)c2ccc(OC3CCN(C(=O)Nc4cccc(CS(=O)(=O)N5CC[C@H](Nc6cccc(-c7sc(C(=O)O)c(OCC(=O)O)c7Cl)c6)CC5(C)C)c4)CC3)cc21 (stereo partly shown)
200 to 1000 nM
CCn1c(=O)n(C2CCC(=O)NC2=O)c2ccc(C3CCN(C(=O)Nc4cccc(CS(=O)(=O)N5CC[C@H](Nc6cccc(-c7sc(C(=O)O)c(OCC(=O)O)c7Cl)c6)CC5(C)C)c4)CC3)cc21 (stereo partly shown)
< 50 nM
O=C(O)COc1c(C(=O)O)sc(-c2cccc(NC3CCN(S(=O)(=O)Cc4cccc(NC(=O)CCc5ccc6c(c5)CN(C5CCC(=O)NC5=O)C6=O)c4)CC3)c2)c1Cl (stereo not shown)
200 to 1000 nM
CC1(C)C[C@@H](Nc2cccc(-c3sc(C(=O)O)c(OCC(=O)O)c3Cl)c2)CCN1S(=O)(=O)Cc1cccc(NC(=O)[C@H]2[C@@H]3CN(C(=O)COc4cccc5c4CN(C4CCC(=O)NC4=O)C5=O)C[C@@H]32)c1 (stereo partly shown)
50 to 200 nM
CC1(C)C[C@@H](Nc2cccc(-c3sc(C(=O)O)c(OCC(=O)O)c3Cl)c2)CCN1S(=O)(=O)Cc1cccc(NC(=O)C2CCN(C(=O)CNc3cccc4c3CN(C3CCC(=O)NC3=O)C4=O)CC2)c1 (stereo partly shown)
< 50 nM
Cn1c(=O)n(C2CCC(=O)NC2=O)c2ccc(NC3CN(C(=O)Nc4cccc(CS(=O)(=O)N5CC[C@H](Nc6cccc(-c7sc(C(=O)O)c(OCC(=O)O)c7Cl)c6)CC5(C)C)c4)C3)cc21 (stereo partly shown)
< 50 nM
